measurement_description: Inhibition of EthR in Mycobacterium tuberculosis H37Rv expressing GFP infected in mouse RAW264.7 cells assessed as concentration required to ethionamide-induced 50% inhibition of bacterial growth after 5 days by microscopic analysis
Type: cell-based
assay_setup: RAW264.7, 120 h
EC50 listing for selected compounds.

Consider the following illustrative entries.
compound: CC(C)CC(=O)N1CCC(c2nc(-c3cccs3)no2)CC1
parameter_measured: EC50
observed_value: 2.5 µM
--
compound: O=C(CCC(F)(F)F)N1CCC(c2nc(-c3cccs3)no2)CC1
parameter_measured: EC50
observed_value: 0.1 µM
--
compound: CCCCC(=O)N1CCC(c2nc(-c3cccs3)no2)CC1
parameter_measured: EC50
observed_value: 1.1 µM

Field request: EC50 | item: O=C(CC(F)(F)F)N1CCC(c2nc(-c3cccs3)no2)CC1
1.3 µM

----------
EC50 listing for selected compounds.
measurement_description: Inhibition of EthR in Mycobacterium tuberculosis H37Rv expressing GFP infected in mouse RAW264.7 cells assessed as concentration required to ethionamide-induced 50% inhibition of bacterial growth after 5 days by microscopic analysis
Format: cell-based
assay_setup: RAW264.7, 120 h

Consider the following illustrative entries.
compound: COc1cccc(CC(=O)N2CCC(c3nc(-c4cccs4)no3)CC2)c1
EC50: > 5000 nM

compound: CC(C)CC(O)C(=O)N1CCC(c2nc(-c3cccs3)no2)CC1 (stereo unspecified)
EC50: > 5000 nM

compound: O=C(CCc1cccs1)N1CCC(c2nc(-c3cccs3)no2)CC1
EC50: > 5000 nM

compound: CC(CC(=O)N1CCC(c2nc(-c3cccs3)no2)CC1)C(F)(F)F (stereo unspecified)
EC50: > 5000 nM

Continue with the next compound.
Field request: EC50 | item: O=S(=O)(CCC(F)(F)F)N1CCC(c2nc(-c3cccs3)no2)CC1
> 5000 nM

----------
measurement_description: Intrinsic clearance in CD1 mouse liver microsomes by LC-MS-MS analysis
Type: ADME, Microsome
assay_setup: CD1, mouse, liver microsomes
microsomal CLint listing for selected molecules.
I only need the number, in µL/min/mg, no unit after it.

structure_smiles_string: O=C(Cc1cccs1)N1CCC(c2nc(-c3cccs3)no2)CC1
observed_value: 412

Field request: microsomal CLint | item: N#CCC(=O)N1CCC(c2nc(-c3cccs3)no2)CC1
11

----------
System: RAW264.7
measurement_description: Cytotoxicity against mouse RAW264.7 cells at > 30 uM
Type: cell-based
parameter_measured: Activity

Consider the following illustrative entries.
structure_smiles_string: O=C(CCC(F)(F)F)N1CC[C@@H](c2nc(-c3cccs3)no2)C1
observed_value: Non-toxic
//
structure_smiles_string: O=C(CCC(F)(F)F)N1CCC(c2nc(-c3cccs3)no2)CC1
observed_value: Non-toxic
//
structure_smiles_string: O=C(CC1CC1)N1CCC(c2nc(-c3cccs3)no2)CC1
observed_value: Non-toxic
//
structure_smiles_string: CC(C)CCC(=O)N1CCC(c2nc(-c3cccs3)no2)CC1
observed_value: Toxic
//
structure_smiles_string: O=C(CC1CCCC1)N1CCC(c2nc(-c3cccs3)no2)CC1
observed_value: Toxic

Field request: Activity | item: O=C(CC1CCCCC1)N1CCC(c2nc(-c3cccs3)no2)CC1
Toxic

----------
measurement_description: Half life in CD1 mouse liver microsomes by LC-MS-MS analysis
Format: ADME, Microsome
half-life listing for selected compounds.

compound: O=C(CCC(F)(F)F)N1CCC(c2nc(-c3cccs3)no2)CC1
half-life: 5 min
--
compound: O=C(Cc1cccs1)N1CCC(c2nc(-c3cccs3)no2)CC1
half-life: 3 min

Field request: half-life | item: CC(C)NCC(O)COc1cccc2ccccc12 (stereo not given)
13 min

Field request: half-life | item: O=C(CCC(F)(F)F)N1CC[C@@H](c2nc(-c3cccs3)no2)C1
298 min

Field request: half-life | item: N#CCC(=O)N1CCC(c2nc(-c3cccs3)no2)CC1
91 min

----------
measurement_description: Solubility of the compound at pH 7.4 after 24 hrs
Type: physicochemical
assay_setup: buffer
solubility at 24 h listing for selected compounds.
I only need the number, in µg/mL, no unit after it.

structure_smiles_string: O=C(CC1CC1)N1CCC(c2nc(-c3cccs3)no2)CC1
units: µg/mL
solubility at 24 h: 64
//
structure_smiles_string: O=C(CCC(F)(F)F)N1CC[C@@H](c2nc(-c3cccs3)no2)C1
units: µg/mL
solubility at 24 h: 80
//
structure_smiles_string: O=C(Cc1cccs1)N1CCC(c2nc(-c3cccs3)no2)CC1
units: µg/mL
solubility at 24 h: 22

Continue with the next compound.
Field request: solubility at 24 h | item: N#CCC(=O)N1CCC(c2nc(-c3cccs3)no2)CC1
194

----------
pEC50 listing for selected molecules.
measurement_description: Inhibition of EthR in Mycobacterium tuberculosis H37Rv expressing GFP infected in mouse RAW264.7 cells assessed as concentration required to ethionamide-induced 50% inhibition of bacterial growth after 5 days by microscopic analysis
Type: cell-based
assay_setup: RAW264.7, 120 h
pEC50: −log10 of the molar value.

molecule: O=C(CC(O)C(F)(F)F)N1CCC(c2nc(-c3cccs3)no2)CC1 (stereo not drawn)
parameter_measured: pEC50
observed_value: < 5.30
//
molecule: CCCC(=O)N1CCC(c2nc(-c3cccs3)no2)CC1
parameter_measured: pEC50
observed_value: 5.68
//
molecule: COc1ccc(CC(=O)N2CCC(c3nc(-c4cccs4)no3)CC2)cc1
parameter_measured: pEC50
observed_value: < 5.30

Field request: pEC50 | item: CC(C)(C)CCC(=O)N1CCC(c2nc(-c3cccs3)no2)CC1
< 5.30

Field request: pEC50 | item: COc1ccccc1CC(=O)N1CCC(c2nc(-c3cccs3)no2)CC1
< 5.30

Field request: pEC50 | item: COCCC(=O)N1CCC(c2nc(-c3cccs3)no2)CC1
< 5.30

Field request: pEC50 | item: N#CCC(=O)N1CCC(c2nc(-c3cccs3)no2)CC1
5.82

----------
measurement_description: Inhibition of EthR in Mycobacterium tuberculosis H37Rv expressing GFP infected in mouse RAW264.7 cells assessed as concentration required to ethionamide-induced 50% inhibition of bacterial growth after 5 days by microscopic analysis
Type: cell-based
assay_setup: RAW264.7, 120 h
pEC50: −log10 of the molar value.
parameter_measured: pEC50

Consider the following illustrative entries.
molecule: Cc1ccccc1CC(=O)N1CCC(c2nc(-c3cccs3)no2)CC1
pEC50: < 5.30

molecule: CC(C)C[C@H](N)C(=O)N1CCC(c2nc(-c3cccs3)no2)CC1
pEC50: < 5.30

molecule: O=C(CCC(F)(F)F)N1CCC[C@H](c2nc(-c3cccs3)no2)C1
pEC50: < 5.30

molecule: O=C(Cc1ccccc1)N1CCC(c2nc(-c3cccs3)no2)CC1
pEC50: 5.68

molecule: CC(C)CCC(=O)N1CCC(c2nc(-c3cccs3)no2)CC1
pEC50: 7.00

molecule: O=C(CC1CCCCC1)N1CCC(c2nc(-c3cccs3)no2)CC1
pEC50: 6.52

Field request: pEC50 | item: O=C(Cc1cccc(Cl)c1)N1CCC(c2nc(-c3cccs3)no2)CC1
< 5.30

Field request: pEC50 | item: [N-]=[N+]=NCC(=O)N1CCC(c2nc(-c3cccs3)no2)CC1
5.92

Field request: pEC50 | item: CC(CC(F)(F)F)C(=O)N1CCC(c2nc(-c3cccs3)no2)CC1 (centres undefined)
< 5.30

Field request: pEC50 | item: O=C(CCC(F)(F)F)N1CCC[C@@H](c2nc(-c3cccs3)no2)C1
< 5.30

Field request: pEC50 | item: O=C(CCC(F)(F)F)N1CC[C@@H](c2nc(-c3cccs3)no2)C1
6.40

Field request: pEC50 | item: O=C(O)CCC(=O)N1CCC(c2nc(-c3cccs3)no2)CC1
< 5.30

Field request: pEC50 | item: CCC(=O)N1CCC(c2nc(-c3cccs3)no2)CC1
< 5.30

Field request: pEC50 | item: COCC(=O)N1CCC(c2nc(-c3cccs3)no2)CC1
< 5.30

Field request: pEC50 | item: O=C(CCC(F)(F)F)NCCCc1nc(-c2cccs2)no1
< 5.30

Field request: pEC50 | item: O=C(CCC(F)(C(F)(F)F)C(F)(F)F)N1CCC(c2nc(-c3cccs3)no2)CC1
< 5.30

Field request: pEC50 | item: O=C(Cc1ccncc1)N1CCC(c2nc(-c3cccs3)no2)CC1
< 5.30

Field request: pEC50 | item: O=C(Cc1cccc(F)c1)N1CCC(c2nc(-c3cccs3)no2)CC1
< 5.30

Field request: pEC50 | item: O=C(NCC(F)(F)F)N1CCC(c2nc(-c3cccs3)no2)CC1
< 5.30
